- measurement-description: Efflux ratio of permeability across basolateral to apical side over apical to basolateral side in MDCK2 cells
- Assay type: ADME, cell-based, Canis lupus familiaris, MDCK-II
- test-parameters: dog, mdck
experimental-endpoint: efflux ratio
Form: value (number only, do not type unit).

Worked cases, answers included:
CN1CCN(CCOc2cc(F)c3c(c2)N(C)C(=O)C32CCN(c3nc4c(c(=O)[nH]3)CCCN4C)CC2)CC1 = 13.1
CN1CCCc2c1nc(N1CCC3(CC1)C(=O)N(CC(F)(F)F)c1cc(F)cc(F)c13)[nH]c2=O = 0.7

Qu. Any idea what efflux ratio was measured for CN1CCCc2c1nc(N1CCC3(CC1)C(=O)N(C)c1cc(OCCN4CCCC4)cc(F)c13)[nH]c2=O ?
Ans. 7.1

Qu. Can you look up the measured efflux ratio of CN1CCCc2c1nc(N1CCC3(CC1)C(=O)N(C)c1cc(OCCO)cc(F)c13)[nH]c2=O for me?
Ans. 6.2

Qu. For CN1CCCc2c1nc(N1CCC3(CC1)C(=O)N(CC(=O)O)c1cc(F)cc(F)c13)[nH]c2=O , what is its reported efflux ratio?
Ans. 0.4

Qu. I am curious: what efflux ratio value has been reported for COCCN1C(=O)C2(CCN(c3nc4c(c(=O)[nH]3)CCCN4C)CC2)c2c(F)cc(F)cc21 ?
Ans. 1.3

Qu. Consider the molecule CN1CCC(Oc2cc(F)c3c(c2)N(C)C(=O)C32CCN(c3nc4c(c(=O)[nH]3)CCCN4C)CC2)CC1 and give its measured efflux ratio.
Ans. 4.6

Qu. Given the molecule CN(C)CCOc1cc(F)c2c(c1)N(C)C(=O)C21CCN(c2nc3c(c(=O)[nH]2)CCCN3C)CC1 , what is its reported efflux ratio?
Ans. 9.2

----------
- measured-target: Tankyrase 1/2 (Homo sapiens, UniProt Q9H2K2+O95271)
- test-parameters: hek293
- Description: Inhibition of TNKS/TNKS2 (unknown origin) expressed in HEK293 cells assessed as reduction in Wnt-signaling measured after 24 hrs by TCF-luciferase reporter gene assay
experimental-endpoint: log10(IC50) (log10 of the value in nM)
Annotation: log10 of IC50, nM basis.

COCCOc1cc(F)c2c(c1)N(C)C(=O)C21CCN(c2nc3c(c(=O)[nH]2)CCCN3C)CC1 = -1.00
C[C@@H]1CN(c2cc(F)c3c(c2)N(C)C(=O)C32CCN(c3nc4c(c(=O)[nH]3)CCCN4C)CC2)C[C@H](C)N1 = -1.00
CN(C)c1cc(F)c2c(c1)N(C)C(=O)C21CCN(c2nc3c(c(=O)[nH]2)CCCN3C)CC1 = 0.66

Qu. Would you mind telling me what log10(IC50) value was observed for CN1CCCc2c1nc(N1CCC3(CC1)C(=O)N(C)c1cc(OCC(=O)O)cc(F)c13)[nH]c2=O ?
Ans. 2.71

Qu. // log10(IC50) lookup, key: Cn1ccc2c(=O)[nH]c(N3CCC4(CC3)CN(CCO)c3cc(F)cc(F)c34)nc21
Ans. 0.04

Qu. Endpoint output: log10(IC50) of CN1CCN(c2cc(F)c3c(c2)N(C)C(=O)C32CCN(c3nc4c(c(=O)[nH]3)CCCN4C)CC2)CC1 . Value?
Ans. -0.05

Qu. Entry CN1CCCc2c1nc(N1CCC3(CC1)C(=O)N(CC(F)(F)F)c1cc(F)cc(F)c13)[nH]c2=O : reported log10(IC50) = ?
Ans. -0.70

Qu. Recorded log10(IC50) for CN1CCCc2c1nc(N1CCC3(CC1)CN(CCO)c1cc(F)cc(F)c13)[nH]c2=O , please?
Ans. 0.43
